Entry source: PubChem BioAssay (NCI)

# Tested on: OVCAR-3 ovarian
# Assay comment: NCI tumour cell line growth inhibition, 48 h
Measured endpoint: TGI

{"columns": ["Compound", "TGI"],
 "data": [
  ["CN(CC(=O)N1CC(CCl)c2ccc([N+](=O)[O-])cc21)CC(=O)N1CC(CCl)c2ccc([N+](=O)[O-])cc21 (stereo not given)", "> 100 µM"],
  ["S=C1NCCN1", "> 100 µM"],
  ["COc1cc2nc(-c3ccc(C(F)(F)F)cc3)cc(OCCCN3CCC(O)CC3)c2cc1OC", "22.2 µM"]
]}

Could you please provide reported TGI for CC1=C(C#N)C23C(=O)c4ccccc4C(O)=C2C(=O)C=CC3(O)N1Cc1ccccc1 (stereo not given) ? Thanks!
> 100 µM

Could you please provide reported TGI for O=C1N(C2CCCCC2)C(=O)N1C1CCCCC1 ? Thanks!
> 100 µM

###

# Tested on: CAKI-1 renal
# Assay comment: NCI tumour cell line growth inhibition, 48 h
Measured endpoint: GI50

Would you please look over these solved cases?
{"columns": ["Compound", "Observed result"],
 "data": [
  ["Cc1cc2nc(C(Cl)Cl)nc(-c3ccc(Cl)cc3)n2n1", "0.798 µM"],
  ["O=C(Nc1ccc(F)cc1F)c1cc(I)ccc1O", "1.92 µM"],
  ["COc1ccc2c(c1)C(=O)/C(=C/c1ccc(OCC(=O)Nc3nccs3)cc1)O2", "0.392 µM"],
  ["CN(C)CCCNC1=C(Cl)C(=O)c2ccccc2C1=O", "7.14 µM"],
  ["CSc1ccccc1C#C/C=C\\C#Cc1ccccc1N1CCCC1=O", "> 10.3 µM"],
  ["CCOC(=O)Nc1nc2ccc(OCC)cc2s1", "> 100 µM"],
  ["COc1cc2c(c(OC)c1O)C(=O)C(OC)C(c1ccc(O)c(O)c1)O2 (stereo not given)", "0.336 µM"],
  ["COC(=O)Nc1nc2ccc(S(=O)c3ccccc3)cc2[nH]1 (stereo not given)", "4.99 µM"],
  ["O=C1NNC(=O)c2ccccc2SSc2ccccc2C(=O)NNC(=O)c2ccccc2SSc2ccccc21", "18.1 µM"],
  ["COc1cc(/C=C/c2cc(/C=C/c3ccc(O)c(OC)c3)n(C(=O)Nc3ccc(F)cc3)n2)ccc1O", "0.77 µM"]
]}

// moving on: another record for GI50
Could you please provide reported GI50 for CCOc1ccccc1-n1c(CN2CCN(C(=O)COc3ccc(CNCCCCCCN4C5CCCC4CC(OC(=O)Nc4cc(C)ccc4OC)C5)cc3)CC2)nc2ccccc2c1=O (stereo not given) ? Thanks!
1.63 µM

###

# System: M14 melanoma
# Assay comment: NCI tumour cell line growth inhibition, 48 h; in the data active = GI50 below about 0.43 µM; inactive = the rest
The reply should name one outcome from Yes for active, No for inactive

Solved entries (count: 5):
{"columns": ["Molecule", "Category"],
 "data": [
  ["COc1cc2c(c(OC)c1O)C(=O)C(OC)C(c1ccc(O)c(O)c1)O2 (stereo not drawn)", "Yes"],
  ["Clc1cccc(Cc2cn3cc(-c4ccccc4)nc3s2)c1Cl", "No"],
  ["CCOC(=O)Nc1nc2ccc(OCC)cc2s1", "No"],
  ["O=C(CN1CCN(c2cc3c(cc2F)c(=O)c(C(=O)N/N=C/c2ccccc2O)cn3C2CC2)CC1)N/N=C\\c1ccccc1O", "Yes"],
  ["COC(=O)Nc1nc2ccc(S(=O)c3ccccc3)cc2[nH]1 (stereo not drawn)", "No"]
]}

Status in this test for C[C@@H](CS(C)(=O)=O)Nc1ncc2cc(Oc3ccc(F)cc3F)c(=O)n(C)c2n1 ?
No

Status in this test for COc1c2ccoc2c(/C=C/C=O)c2oc(-c3ccccc3)cc(=O)c12 ?
No
